molecular target: Peptide 5: Biotin-…-[Tyr(PC)]-acid; test: scFv ELISA
Sequence (peptide, as listed by the source): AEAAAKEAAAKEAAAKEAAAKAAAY
Listed below: OD450 values for each entry.
// return numeric value only (unit: OD450, not printed)

Guide cases for OD450, answers given:
binder	experimental value
PcOxP_DB04_H08 (scFv, V domains shown, scFv in periplasmic extract) VH: EVQLLESGGGLVQPGGSLRLSCAASGFTFSDGYMEWVRQAPGKGLEWVAASRNKANDYTTEYADSVKGRFTISRDNSKNTLYLQMNSLRAEDTAVYYCARDYYGSSYWYFDVWGQGTLVTVSS VL: DIQMTQSPSSLSASVGDRVTITCTASESLYSSKHKVHYLAWYQQKPGKAPKLLIYGASNLYSGVPSRFSGSGSGTDFTLTISSLQPEDFATYYCAQFYSYPLTFGGGTKVEIK	1.42
PcOxP_DB03_D01 (scFv, V domains shown, scFv in periplasmic extract) VH: EVQLLESGGGLVQPGGSLRLSCAASGFTFSDEYMEWVRQAPGKGLEWVAASRNKANDYTTEYADSVKGRFTISRDNSKNTLYLQMNSLRAEDTAVYYCARDYYGSSYWYFDVWGQGTLVTVSS VL: DIQMTQSPSSLSASVGDRVTITCTASESLYSSKHKVHYLAWYQQKPGKAPKLLIYGASNRYIGVPSRFSGSGSGTDFTLTISSLQPEDFATYYCAQFYYYPLTFGGGTKVEIK	1.6
PcOxP_DB03_B03 (scFv, V domains shown, scFv in periplasmic extract) VH: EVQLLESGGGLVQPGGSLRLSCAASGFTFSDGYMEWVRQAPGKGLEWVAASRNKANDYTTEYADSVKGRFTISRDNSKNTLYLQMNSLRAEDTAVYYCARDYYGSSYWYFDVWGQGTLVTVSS VL: DIVMTQSPDSLAVSLGERATINCTASESLYSSKHKVHYLAWYQQKPGQPPKLLIYGASNRYIGVPDRFSGSGSGTDFTLTISSLQAEDVAVYYCAQFYVYPLTFGGGTKVEIK	1.1
PcOxP_DB03_A04 (scFv, V domains shown, scFv in periplasmic extract) VH: EVQLLESGGGLVQPGGSLRLSCAASGDTFSDFYMEWVRQAPGKGLEWVAASRNKANDYSTEYADSVKGRFTISRDNSKNTLYLQMNSLRAEDTAVYYCARDYYGSSYWYFDVWGQGTLVTVSS VL: DIVMTQSPDSLAVSLGERATINCEASESLYSSKHKVHYLAWYQQKPGQPPKLLIYGASNRYIGVPDRFSGSGSGTDFTLTISSLQAEDVAVYYCAQFYSYPLTFGGGTKVEIK	0.47
PcOxP_DB02_G09 (scFv, V domains shown, scFv in periplasmic extract) VH: EVQLLESGGGLVQPGGSLRLSCAASGFTFSDQYMEWVRQAPGKGLEWVAASRNKANDYTTEYADSVKGRFTISRDNSKNTLYLQMNSLRAEDTAVYYCARDYYGSSYWYFDVWGQGTLVTVSS VL: DIQMTQSPSSLSASVGDRVTITCTASESLYSSKHKVHYLAWYQQKPGKAPKLLIYGASNRPIGVPSRFSGSGSGTDFTLTISSLQPEDFATYYCAQFYSYPLTFGGGTKVEIK	0.71

Reported OD450 ( PcOxP_DB01_E01 (scFv, V domains shown, scFv in periplasmic extract) VH: EVQLLESGGGLVQPGGSLRLSCAASGFTSSDFYMEWVRQAPGKGLEWVAASRNKANDYTTEYADSVKGRFTISRDNSKNTLYLQMNSLRAEDTAVYYCARDYYGSSYWYFDVWGQGTLVTVSS VL: DIVMTQSPDSLAVSLGERATINCTASESLYSSKHKVHYLAWYQQKPGQPPKLLIYGASNRVIGVPDRFSGSGSGTDFTLTISSLQAEDVAVYYCANFYSYPLTFGGGTKVEIK ) = 1.48

Data point: PcOxP_DB04_B08 (scFv, V domains shown, scFv in periplasmic extract) VH: EVQLLESGGGLVQPGGSLRLSCAASGFTFSDDYMEWVRQAPGKGLEWVAASRNKANDYTTEYADSVKGRFTISRDNSKNTLYLQMNSLRAEDTAVYYCARDYYGSSYWYFDVWGQGTLVTVSS VL: DIQMTQSPSSLSASVGDRVTITCTASESLYSSKHKVHYLAWYQQKPGKAPKLLIYGLSNRYIGVPSRFSGSGSGTDFTLTISSLQPEDFATYYCAQFFSYPLTFGGGTKVEIK ; OD450 = 1.56

Form field OD450, entry PcOxP_DB01_C07 (scFv, V domains shown, scFv in periplasmic extract) VH: EVQLLESGGGLVQPGGSLRLSCAASGFTFSDYYMEWVRQAPGKGLEWVAASRNKANDYTTEYADSVKGRFTISRDNSKNTLYLQMNSLRAEDTAVYYCARDYYGSSYWYFDVWGQGTLVTVSS VL: DIVMTQSPDSLAVSLGERATINCTASESLYSSKHKVHYLAWYQQKPGQPPKLLIYGASNRYDGVPDRFSGSGSGTDFTLTISSLQAEDVAVYYCAQFYSYPLTFGGGTKVEIK : 1.1

Entry PcOxP_DB03_H09 (scFv, V domains shown, scFv in periplasmic extract) VH: EVQLLESGGGLVQPGGSLRLSCAASGFTFSDAYMEWVRQAPGKGLEWVAASRNKANSYTTEYADSVKGRFTISRDNSKNTLYLQMNSLRAEDTAVYYCARDYYGSSYWYFDVWGQGTLVTVSS VL: DIQMTQSPSSLSASVGDRVTITCTASESLYSSKHKVHYLAWYQQKPGKAPKLLIYGASNRYIGVPSRFSGSGSGTDFTLTISSLQPEDFATYYCAEFYSYPLTFGGGTKVEIK — recorded OD450 = 1.25

// PcOxP_DB04_H03 (scFv, V domains shown, scFv in periplasmic extract) VH: EVQLLESGGGLVQPGGSLRLSCAASGFPFSDFYMEWVRQAPGKGLEWVAASRNKANDYTTEYADSVKGRFTISRDNSKNTLYLQMNSLRAEDTAVYYCARDYYGSSYWYFDVWGQGTLVTVSS VL: DIQMTQSPSSLSASVGDRVTITCRASESLYSSLHKYLAWYQQKPGKAPKLLIYGASNLQIGVPSRFSGSGSGTDFTLTISSLQPEDFATYYCAQFYSYPLTFGGGTKVEIK : OD450 value = 1.05
